Data origin, for the record: ChEMBL document CHEMBL5576091

assay-protocol: Cytotoxicity against human MT4 cells assessed as reduction in cell viability incubated for 5 days by MTT assay
Assay type: toxicity, cell-based
run-parameters: time 5 day
value-type: CC50 at 120 h (µM)
Numeric only. Scale: µM

Qu. Param item = Cc1cn([C@H]2C[C@H](N=[N+]=[N-])[C@@H](CO)O2)c(=O)[nH]c1=O [ZIDOVUDINE] ; retrieve measured CC50 at 120 h.
Ans. 51

Qu. For the molecule C[Se][C@H]1[C@H](O)[C@@H](CO)O[C@H]1n1cc(C)c(=O)[nH]c1=O , what CC50 at 120 h is on record?
Ans. 0.72

Qu. Item C[Se][C@H]1[C@H](O)[C@@H](COP(=O)(N[C@@H](C)C(=O)OC(C)C)Oc2ccccc2)O[C@H]1n1cc(C)c(=O)[nH]c1=O (stereo partly specified) has what recorded CC50 at 120 h?
Ans. 0.007

Qu. Consider the molecule shown here: C[Se][C@H]1[C@H](O)[C@@H](COP(=O)(N[C@@H](C)C(=O)OC(C)C)Oc2ccccc2)O[C@H]1n1ccc(=O)[nH]c1=O (stereo partly specified) What is its recorded CC50 at 120 h?
Ans. 0.007

Qu. Reported CC50 at 120 h for C[Se][C@H]1[C@H](O)[C@@H](COP(=O)(N[C@@H](C)C(=O)OC(C)C)Oc2ccccc2)O[C@H]1n1cnc2c(=O)[nH]c(N)nc21 (stereo partly specified) : what is it?
Ans. 51

Qu. Find the recorded CC50 at 120 h belonging to C[Se][C@H]1[C@H](O)[C@@H](CO)O[C@H]1n1ccc(=O)[nH]c1=O and report it.
Ans. 0.006

Qu. What CC50 at 120 h value was documented for this molecule, C[Se][C@H]1[C@H](O)[C@@H](CO)O[C@H]1n1cnc2c(N)nc(F)nc21 ?
Ans. 12
